Consider the following compounds; for each one, report its activity at 3 µM.
test system: Human Jurkat-E6-1 cells; assay: Measurement of IL-2 secretion of Jurkat cells by ELISA; format: cell-based; details: Homo sapiens, Jurkat E6.1; test compound 3.0 μM; anti-CD3/anti-CD28 stimulation 24 hours; read-out: Percentage of the amount of IL-2 secreted from compound treated/DMSO-treated cells
One number for each entry, in %.

For orientation, consider the following solved cases.
compound="Cc1cccc(F)c1-n1nc2c(-c3ccc4c(c3)CN(CCO)CC4)n[nH]c2cc1=O [Compound 162]" tested_on="Human Jurkat-E6-1 cells" measurement_type="activity at 3 µM" unit=% measurement=586
compound="Cc1cccc(F)c1-n1nc2c(-c3ccc(N4C[C@H]5C[C@@H]4CN5C)cc3)n[nH]c2cc1=O [Compound 88]" tested_on="Human Jurkat-E6-1 cells" measurement_type="activity at 3 µM" unit=% measurement=550
compound="COc1cccc(F)c1-n1nc2c(-c3ccc(N4CCOCC4)cc3)n[nH]c2c(C)c1=O [Compound 155]" tested_on="Human Jurkat-E6-1 cells" measurement_type="activity at 3 µM" unit=% measurement=435

Consider the record given below.
Lab book: activity at 3 µM of Cc1cccc(F)c1-n1nc2c(-c3ccc(N4CCN(C)C(CO)C4)cc3)n[nH]c2cc1=O (stereo not shown) [Compound 120] noted as 482

Entry source: patent US20230322789A1
